# credit: patent US8653041B2

- System: Pseudomonas aeruginosa
- assay_explanation: MIC, CLSI broth microdilution, Pseudomonas aeruginosa panel
- Format: cell-based
- measurement_context: Pseudomonas aeruginosa, P. aeruginosa strain 27 (susceptible); read-out: MIC

| given_smiles | MIC |
| --- | --- |
| NC[C@H]1O[C@H](O[C@H]2[C@H](O)[C@@H](O[C@H]3O[C@H](CO)[C@@H](O)[C@H](N)[C@H]3O)[C@H](N)C[C@@H]2N)[C@H](N)C[C@@H]1O | 1 to 8 µg/mL |
| NCC[C@H](O)C(=O)N[C@@H]1C[C@H](N)[C@@H](O[C@H]2O[C@H](CNCCO)[C@@H](O)C[C@H]2N)[C@H](O[C@@H]2O[C@H](CO)[C@@H](O[C@H]3O[C@@H](CN)[C@@H](O)[C@H](O)[C@H]3N)[C@H]2O)[C@H]1O | ≤ 1 µg/mL |
| NC[C@@H]1O[C@H](O[C@H]2[C@@H](O)[C@H](O[C@@H]3[C@@H](O)[C@H](NC(=O)[C@@H](O)CN)C[C@H](N)[C@H]3O[C@H]3O[C@H](CNCCO)[C@@H](O)C[C@H]3N)O[C@@H]2CO)[C@H](N)[C@@H](O)[C@@H]1O | ≤ 1 µg/mL |
| NCC[C@H](O)C(=O)N[C@@H]1C[C@H](N)[C@@H](O[C@H]2O[C@H](CN)[C@@H](O)[C@H](O)[C@H]2O)[C@H](O)[C@H]1O[C@H]1O[C@H](CO)[C@@H](O)[C@H](N)[C@H]1O | ≤ 1 µg/mL |
